# Test system: K-562 leukemia
# Assay Details: NCI tumour cell line growth inhibition, 48 h; in the data active means GI50 below about 0.43 µM; inactive means the rest
Outcome codes: active, inactive

[
  {
    "Compound": "O=C1/C(=C\\c2coc3ccccc3c2=O)c2ccccc2N1c1c(Cl)cccc1Cl",
    "Label Value": "inactive"
  },
  {
    "Compound": "CC(=O)OC[C@]12CC[C@@H]([C@@H](C)C(N)=O)[C@@H]1[C@H]1CC[C@@H]3[C@@]4(C)CC[C@H](OC(C)=O)C(C)(C)[C@@H]4CC[C@@]3(C)[C@]1(C)CC2",
    "Label Value": "inactive"
  },
  {
    "Compound": "CC1=C(/C=C/C(C)=C/C=C/C(C)=C/C(=O)Nc2ccc(O)cc2)C(C)(C)CCC1",
    "Label Value": "inactive"
  },
  {
    "Compound": "COc1c(CNC(=O)CCl)cc2[nH]c(C)cc2c1CNC(=O)CCl",
    "Label Value": "inactive"
  },
  {
    "Compound": "COc1ccc(-c2nn(-c3cccc(NC(=O)Nc4cc(C(F)(F)F)cc(C(F)(F)F)c4)c3)cc2-c2ccncc2)cc1Cl",
    "Label Value": "inactive"
  },
  {
    "Compound": "Clc1ccc(-c2nn3ncccc3c2-c2ccnc(Nc3ccccc3)n2)cc1",
    "Label Value": "inactive"
  },
  {
    "Compound": "COc1cc([C@@H]2c3cc4c(cc3[C@@H](O[C@@H]3O[C@@H]5CO[C@@H](c6cccs6)O[C@H]5[C@H](O)[C@H]3O)[C@H]3COC(=O)[C@H]23)OCO4)cc(OC)c1O",
    "Label Value": "active"
  },
  {
    "Compound": "N#Cc1c(-c2ccccc2)cc(-c2ccccc2)n(CCCCC(=O)NO)c1=O",
    "Label Value": "inactive"
  },
  {
    "Compound": "Cc1cc(-c2nc(-c3ccc(OC(F)(F)F)cc3)no2)nn1Cc1ccnc(N2CCN(C3CC3)CC2)c1",
    "Label Value": "active"
  },
  {
    "Compound": "COc1cccc(C2NC(=S)NC(C)=C2C(=O)Nc2ccc(F)c(Cl)c2)c1 (stereo not drawn)",
    "Label Value": "inactive"
  },
  {
    "Compound": "N#CN1CCC[C@H]1C(=O)N1CCc2c(-c3[nH]nc4ncccc34)cccc21",
    "Label Value": "active"
  },
  {
    "Compound": "COc1ccc(Cc2cnc(NC(=O)c3sc4ccccc4c3Cl)s2)cc1",
    "Label Value": "active"
  },
  {
    "Compound": "O=C1C(Cl)=C(Nc2cccc(O)c2)C(=O)N1c1ccc(Cl)c(Cl)c1",
    "Label Value": "inactive"
  },
  {
    "Compound": "COc1cc([C@@H]2c3cc4c(cc3[C@H](O)[C@H]3COC(=O)[C@H]23)OCO4)cc(OC)c1OC",
    "Label Value": "active"
  },
  {
    "Compound": "Oc1cc(O)c2c(=S)cc(-c3ccc(Cl)cc3)oc2c1",
    "Label Value": "inactive"
  },
  {
    "Compound": "CCOC(=O)C1=C(C)NC2SC(=O)/C(=C\\c3ccccc3)N2C1c1ccccc1 (stereo not drawn)",
    "Label Value": "inactive"
  },
  {
    "Compound": "N#Cc1cccc(NC(=O)c2oc3ccccc3c2-c2cnn(-c3ccccc3)c2)c1",
    "Label Value": "inactive"
  },
  {
    "Compound": "COC(=O)[C@H](CC(C)C)NC(=O)NC(=O)NC(=O)CI",
    "Label Value": "inactive"
  }
]

* * *

# Tested on: COLO 205 colon
# Assay Details: NCI tumour cell line growth inhibition, 48 h
Property Label: TGI

[
  {
    "Compound": "Nc1nc(NNc2ccc(Cl)c(Cl)c2)cc(=O)[nH]1",
    "Result": "61.1 µM"
  },
  {
    "Compound": "CN(C)CC(CO)(CN(C)C)CN(C)C",
    "Result": "> 100 µM"
  },
  {
    "Compound": "O=C(O)c1cc(=O)[nH]c(=S)[nH]1",
    "Result": "> 100 µM"
  },
  {
    "Compound": "O=C(O)C1CCCCN1C(=O)c1ccccc1 (configuration not stated)",
    "Result": "> 100 µM"
  },
  {
    "Compound": "CCCCN(CCCC)CCCN=c1nc2c(c(N)n1-c1ccccc1)c(=S)n(-c1ccccc1)c(=S)n2-c1ccccc1",
    "Result": "1.39 µM"
  },
  {
    "Compound": "C=C(C)[C@@]1(O)CCC[C@H]1NC(=O)OC(C)(C)C",
    "Result": "> 100 µM"
  },
  {
    "Compound": "CN(C)CCCNc1nccc(-c2c(-c3ccc(F)cc3)nn3cc(C(F)(F)F)ccc23)n1",
    "Result": "8.71 µM"
  },
  {
    "Compound": "CC1(C)CN=C(Nc2ccc(Cl)cc2)S1",
    "Result": "> 100 µM"
  },
  {
    "Compound": "N#CC(C#N)=C(N)/C(C#N)=C/c1cc(O)c(O)c(Br)c1",
    "Result": "> 100 µM"
  },
  {
    "Compound": "COC(=O)N/N=C/c1oc(-c2ccccc2)c(-c2ccccc2)c1[N+](=O)[O-]",
    "Result": "> 100 µM"
  },
  {
    "Compound": "CN1CCN(C(=S)N(C(=O)c2ccco2)c2ccccc2)CC1",
    "Result": "> 100 µM"
  },
  {
    "Compound": "CC(=O)OCC12C(OC(C)=O)C[C@@H](C)C3(CC(c4ccoc4)OC3=O)C1CCC(O)C21CO1 (some centres not stated)",
    "Result": "> 100 µM"
  },
  {
    "Compound": "COc1ccc(C2=C(c3cc(OC)c(OC)c(OC)c3)C(=O)CC2)cc1",
    "Result": "1.17 µM"
  },
  {
    "Compound": "O=C1CC(=O)c2c(Cl)sc(Cl)c21",
    "Result": "> 100 µM"
  },
  {
    "Compound": "N#Cc1c(NC(=O)CN2CCOCC2)sc2c1CCCC2",
    "Result": "> 25 µM"
  },
  {
    "Compound": "COc1cc(C(N)=O)cc(NC(=O)/C=C/c2ccccc2)c1OC",
    "Result": "> 100 µM"
  },
  {
    "Compound": "Cc1nc2ccccc2c(=O)n1CC(=O)O",
    "Result": "> 100 µM"
  }
]

* * *

# Tested on: SW-620 colon
# Assay Details: NCI tumour cell line growth inhibition, 48 h

[
  {
    "Compound": "CNC(C)C(=O)N[C@H](C(=O)N1CCC[C@@H]1CN(CCc1ccccc1)C(=O)C(F)(F)F)[C@H](C)OCC#CC#CCO[C@H](C)[C@H](NC(=O)[C@H](C)NC)C(=O)N1CCC[C@H]1CN(CCc1ccccc1)C(=O)C(F)(F)F (some centres not stated)",
    "TGI": "3.16 µM"
  },
  {
    "Compound": "CC1(C)C(=S)C(C)(C)C1=S",
    "TGI": "> 100 µM"
  },
  {
    "Compound": "O=C(O)C1CCCCN1C(=O)c1ccccc1 (configuration not stated)",
    "TGI": "> 100 µM"
  },
  {
    "Compound": "NC(=O)C(NC=O)c1ccccc1 (configuration not stated)",
    "TGI": "> 100 µM"
  },
  {
    "Compound": "C[C@]12C=CC(=O)C=C1CC[C@@H]1[C@@H]2C(=O)C[C@@]2(C)[C@H]1CC[C@]2(O)C(=O)CO",
    "TGI": "> 100 µM"
  },
  {
    "Compound": "O=C(O)CCC1(Br)CCCCC(Br)C1=O (configuration not stated)",
    "TGI": "> 100 µM"
  },
  {
    "Compound": "c1ccc2sc(C3(N4CCCCC4)CCCCCC3)cc2c1",
    "TGI": "25 µM"
  },
  {
    "Compound": "CN1c2ccccc2S(=O)(=O)n2c(COc3ccc(Cl)cc3)nnc21",
    "TGI": "> 100 µM"
  },
  {
    "Compound": "CC(=O)Nc1cc2c(cc1O)CC[C@@H]1[C@@H]2CC[C@]2(C)[C@@H](O)CC[C@@H]12",
    "TGI": "71.9 µM"
  },
  {
    "Compound": "COC(=O)/C=C1/N=C(N(C)/N=C/c2ccccc2)NC1=O",
    "TGI": "> 100 µM"
  },
  {
    "Compound": "Cc1ccc2[nH]c3[nH]c(=O)[nH]c(=O)c3c2c1",
    "TGI": "> 100 µM"
  },
  {
    "Compound": "N#CC1CCN2N=C(c3ccccc3)SC12c1ccccc1 (configuration not stated)",
    "TGI": "> 100 µM"
  },
  {
    "Compound": "Cc1ccc2c(c1)[nH]c(=S)n2C=C1C(=O)CC(C)(C)CC1=O",
    "TGI": "> 100 µM"
  },
  {
    "Compound": "C=C(CS(=O)(=O)c1ccccc1)[P+](c1ccccc1)(c1ccccc1)c1ccccc1",
    "TGI": "51.1 µM"
  },
  {
    "Compound": "COC(=O)Nc1nc2cc3c(cc2s1)OCCO3",
    "TGI": "> 50 µM"
  },
  {
    "Compound": "O=C1c2ccccc2-c2c1c1ccccc1c(=O)n2CCCN1CCN(CCCn2c3c(c4ccccc4c2=O)C(=O)c2ccccc2-3)CC1",
    "TGI": "> 100 µM"
  },
  {
    "Compound": "O=S1(=O)CS(=O)(=O)OCCCO1",
    "TGI": "> 100 µM"
  }
]
